Measured apparent Kd (screen) accompanies every entry in the list below.
Target: T1, TNFR1 (Homo sapiens, UniProt P19438)
T1 chain: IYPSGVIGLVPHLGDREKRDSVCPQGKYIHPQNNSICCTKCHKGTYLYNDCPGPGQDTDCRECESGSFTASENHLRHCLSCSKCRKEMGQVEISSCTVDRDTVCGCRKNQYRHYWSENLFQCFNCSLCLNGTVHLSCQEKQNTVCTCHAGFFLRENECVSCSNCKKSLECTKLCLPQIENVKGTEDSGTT
Experiment: yeast display SC50
Write it as a number; the unit nM goes unstated.

Fill in the blank: the reported apparent Kd (screen) of V104S (designed binder) MTLQELLREEALRRAEAEAFRYALELLAEKFPEQKEYLLDLAEEIESQIRSLSGVDVEDVRKFLDKEWAWVKELLAEHPAELAEVEAARAARLAELRAEVEAKSAA is ____.
0.869

// switching to the query binder
Fill in the blank: the reported apparent Kd (screen) of M1T (designed binder) TTLQELLREEALRRAEAEAFRYALELLAEKFPEQKEYLLDLAEEIESQIRSLSGVDVEDVRKFLDKEWAWVKELLAEHPAELAEVEAARAARLAELRAEVEAKVAA is ____.
0.49
